biological target: SNX27, Q96L92; assay: holdup assay; design: key: below the threshold = too weak to quantify, mostly under pKd 3.1 to 4; details: plain residues with an end cap or a label only (N-terminal biotin on a linker: ado-ado)
Could you label it Satisfied if measured pKd is 5 or higher, and Not satisfied otherwise?

# count of solved cases: 10
DTTVPESEDL [MYOZ2, Q9NPC6]
Not satisfied
SAAKVLTSMC [GHRHR, Q02643]
Satisfied
SKENVQETQI [LRRC4B, Q9NT99]
Satisfied
LPHGHSTTRV [NLGN4X, Q8N0W4]
Satisfied
KSGKQTMLVV [TRIM29, Q14134]
Not satisfied
LGRSTPQSEV [DGKH, Q86XP1]
Not satisfied
EVNETDDTKM [KCNJ1, P48048]
Not satisfied
KKMPSIESDV [GRIN2A, Q12879]
Not satisfied
FNSYSLTGYV [CLDN2, P57739]
Not satisfied
QMNQTLPVQV [EPHB3, P54753]
Not satisfied

Input line: Identify whether the reported pKd of the following binder is 5 or greater: TACCHSETVV [TGFA, P01135]
Output line: Satisfied
